meta.source: ChEMBL document CHEMBL4020832

Experiment: Volume of distribution at steady state in golden Syrian hamster at 2 mg/kg, iv by LC-MS/MS analysis
Format: ADME, organism-based, Mesocricetus auratus
Details: in vivo, read-out: Vdss
Criterion: Vd strictly less than 5 L/kg. Met: true. Not met: false.

Prompt: Lab note: confirm whether the reported Vd for this molecule is below 5 L/kg, equality not counting. molecule: `O=[N+]([O-])c1cn2c(n1)OC[C@H](OCc1ccc(-c3ccc(OC(F)(F)F)cc3F)nc1)C2`
Completion: true

Prompt: Lab note: confirm whether the reported Vd for this molecule is below 5 L/kg, equality not counting. molecule: `O=[N+]([O-])c1cn2c(n1)OC[C@H](OCc1ccc(-c3ccc(OC(F)(F)F)cc3)cn1)C2`
Completion: false

Prompt: Lab note: confirm whether the reported Vd for this molecule is below 5 L/kg, equality not counting. molecule: `O=[N+]([O-])c1cn2c(n1)OC[C@H](OCc1ccc(-c3ccc(OC(F)(F)F)cc3F)cn1)C2`
Completion: true

Prompt: Lab note: confirm whether the reported Vd for this molecule is below 5 L/kg, equality not counting. molecule: `O=[N+]([O-])c1cn2c(n1)OC[C@H](OCc1ccc(-c3ccc(F)cc3F)nc1)C2`
Completion: false

Prompt: Lab note: confirm whether the reported Vd for this molecule is below 5 L/kg, equality not counting. molecule: `O=[N+]([O-])c1cn2c(n1)OC[C@H](Oc1ccc(OC(F)(F)F)cc1)C2`
Completion: false

Prompt: Lab note: confirm whether the reported Vd for this molecule is below 5 L/kg, equality not counting. molecule: `O=[N+]([O-])c1cn2c(n1)OC[C@H](OCc1ccc(-c3ccc(F)cc3F)cn1)C2`
Completion: true

====

Test: Cmax in Swiss albino mouse at 25 mg/kg, po by LC-MS/MS analysis
Type: ADME, organism-based
Design: dose 25 mg/kg, route oral
Details: in vivo
OBSERVED PROPERTY: Cmax (ng/mL)
Write the number in ng/mL without appending the unit.

Prompt: Fill blank: measured Cmax of the compound O=[N+]([O-])c1cn2c(n1)OCC(COc1ccc(-c3ccc(F)cc3)nc1)C2 (stereo not drawn) is ____.
Completion: 840

Prompt: Fill blank: measured Cmax of the compound O=[N+]([O-])c1cn2c(n1)OCC(COc1ccc(-c3ccc(OC(F)(F)F)cc3)nc1)C2 (stereo not drawn) is ____.
Completion: 870

Prompt: Fill blank: measured Cmax of the compound O=[N+]([O-])c1cn2c(n1)OCC(COc1ccc(OC(F)(F)F)cc1)C2 (stereo not drawn) is ____.
Completion: 1500

====

Assay: Half life in golden Syrian hamster at 2 mg/kg, iv by LC-MS/MS analysis
Type: ADME, organism-based, Mesocricetus auratus
Details: in vivo
Criterion: half-life strictly less than 1 h. Met: true (1). Not met: false (0).

Prompt: Lab note: confirm whether the reported half-life for this molecule is below 1 h, equality not counting. molecule: `O=[N+]([O-])c1cn2c(n1)OC[C@H](OCc1ccc(-c3ccc(F)cc3F)nc1)C2`
Completion: false (0)

Prompt: Lab note: confirm whether the reported half-life for this molecule is below 1 h, equality not counting. molecule: `O=[N+]([O-])c1cn2c(n1)OC[C@H](OCc1ccc(-c3ccc(OC(F)(F)F)cc3)cn1)C2`
Completion: false (0)

Prompt: Lab note: confirm whether the reported half-life for this molecule is below 1 h, equality not counting. molecule: `O=[N+]([O-])c1cn2c(n1)OC[C@H](OCc1ccc(-c3ccc(F)cc3F)cn1)C2`
Completion: true (1)

Prompt: Lab note: confirm whether the reported half-life for this molecule is below 1 h, equality not counting. molecule: `O=[N+]([O-])c1cn2c(n1)OC[C@H](OCc1ccc(-c3ccc(OC(F)(F)F)cc3F)cn1)C2`
Completion: false (0)

Prompt: Lab note: confirm whether the reported half-life for this molecule is below 1 h, equality not counting. molecule: `O=[N+]([O-])c1cn2c(n1)OC[C@H](Oc1ccc(OC(F)(F)F)cc1)C2`
Completion: false (0)

Prompt: Lab note: confirm whether the reported half-life for this molecule is below 1 h, equality not counting. molecule: `O=[N+]([O-])c1cn2c(n1)OC[C@H](OCc1ccc(-c3ccc(OC(F)(F)F)cc3F)nc1)C2`
Completion: false (0)

====

Test: Cmax in Sprague-Dawley rat at 40 mg/kg, po by LC-MS/MS analysis
Type: ADME, organism-based
Design: dose 40 mg/kg, route oral
Conditions: Sprague-Dawley, in vivo
OBSERVED PROPERTY: Cmax
Please state the number and follow it with the unit.

Prompt: Fill blank: measured Cmax of the molecule `O=[N+]([O-])c1cn2c(n1)OC[C@H](Oc1ccc(C(F)(F)F)cn1)C2` is ____.
Completion: 18000 ng/mL

====

Please provide measured AUC(0-t) for the entries that follow.
Assay: AUClast in golden Syrian hamster at 50 mg/kg, po after 24 to 48 hrs by LC-MS/MS analysis
Format: ADME, organism-based, Mesocricetus auratus
Conditions: in vivo
Write the number in ng·h/mL without appending the unit.

Prompt: Fill blank: measured AUC(0-t) of the molecule `O=[N+]([O-])c1cn2c(n1)OC[C@H](OCc1ccc(-c3ccc(F)cc3F)nc1)C2` is ____.
Completion: 3400

Prompt: Fill blank: measured AUC(0-t) of the molecule `O=[N+]([O-])c1cn2c(n1)OC[C@H](Oc1ccc(C(F)(F)F)cn1)C2` is ____.
Completion: 71000

====

Assay: AUClast in golden Syrian hamster at 40 mg/kg, po after 24 to 48 hrs by LC-MS/MS analysis
Format: ADME, organism-based, Mesocricetus auratus
Conditions: in vivo
Please provide measured AUC(0-t) for the entries that follow.

Prompt: Fill blank: measured AUC(0-t) of the molecule `O=[N+]([O-])c1cn2c(n1)OC[C@H](OCc1ccc(-c3ccc(F)cc3F)cn1)C2` is ____.
Completion: 3950 ng·h/mL

Prompt: Fill blank: measured AUC(0-t) of the molecule `O=[N+]([O-])c1cn2c(n1)OC[C@H](OCc1ccc(-c3ccc(OC(F)(F)F)cc3F)cn1)C2` is ____.
Completion: 26700 ng·h/mL

Prompt: Fill blank: measured AUC(0-t) of the molecule `O=[N+]([O-])c1cn2c(n1)OC[C@H](OCc1ccc(-c3ccc(OC(F)(F)F)cc3)cn1)C2` is ____.
Completion: 62700 ng·h/mL

Prompt: Fill blank: measured AUC(0-t) of the molecule `O=[N+]([O-])c1cn2c(n1)OC[C@H](OCc1ccc(-c3ccc(OC(F)(F)F)cc3F)nc1)C2` is ____.
Completion: 46500 ng·h/mL

Prompt: Fill blank: measured AUC(0-t) of the molecule `O=[N+]([O-])c1cn2c(n1)OC[C@H](Oc1ccc(OC(F)(F)F)cc1)C2` is ____.
Completion: 11200 ng·h/mL

====

Test: AUClast in Swiss albino mouse at 40 mg/kg, po after 24 to 48 hrs by LC-MS/MS analysis
Assay type: ADME, organism-based
Conditions: Swiss albino, in vivo
OBSERVED PROPERTY: AUC(0-t)

Prompt: Fill blank: measured AUC(0-t) of the compound `O=[N+]([O-])c1cn2c(n1)OC[C@H](Oc1ccc(C(F)(F)F)cn1)C2` is ____.
Completion: 1780 µg·h/mL

====

Test: Initial concentration in Sprague-Dawley rat at 1 mg/kg, iv by LC-MS/MS analysis
Format: ADME, organism-based
Settings: in vivo
Please provide measured C0 for the entries that follow.
Write the number in ng/mL without appending the unit.

Prompt: Fill blank: measured C0 of the compound `O=[N+]([O-])c1cn2c(n1)OC[C@H](Oc1ccc(C(F)(F)F)cn1)C2` is ____.
Completion: 840

Prompt: Fill blank: measured C0 of the compound `O=[N+]([O-])c1cn2c(n1)OC[C@H](Oc1ccc(OC(F)(F)F)cc1)C2` is ____.
Completion: 540

====

Test: AUClast in Swiss albino mouse at 25 mg/kg, po after 24 to 48 hrs by LC-MS/MS analysis
Format: ADME, organism-based
Conditions: in vivo
OBSERVED PROPERTY: AUC(0-t) (ng·h/mL)
Write the number in ng·h/mL without appending the unit.

Prompt: Fill blank: measured AUC(0-t) of the molecule O=[N+]([O-])c1cn2c(n1)OCC(COc1ccc(OC(F)(F)F)cc1)C2 (configuration not stated) is ____.
Completion: 15700

Prompt: Fill blank: measured AUC(0-t) of the molecule O=[N+]([O-])c1cn2c(n1)OCC(COc1ccc(-c3ccc(F)cc3)nc1)C2 (configuration not stated) is ____.
Completion: 12000

====

Assay: Tmax in Sprague-Dawley rat at 40 mg/kg, po by LC-MS/MS analysis
Format: ADME, organism-based
Settings: Sprague-Dawley, in vivo
OBSERVED PROPERTY: Tmax (h)
Write the number in h without appending the unit.

Prompt: Fill blank: measured Tmax of the compound `O=[N+]([O-])c1cn2c(n1)OC[C@H](Oc1ccc(C(F)(F)F)cn1)C2` is ____.
Completion: 2.7
